- Test system: P388 leukemia ip, CD2F1 mice, survival T/C
- assay-details: NCI In Vivo Anticancer Drug Screen. Data for tumor model P388 Leukemia (intraperitoneal) in CD2F1 (CDF1) mice
- conditions: endpoint: median survival time; dose: 25.0 mg/kg/injection; schedule: Q04DX003 (ip); vehicle: Klucel (hydroxypropylcellulose) (HPC); higher = longer survival
Inconclusive results and toxic doses are left out.
Attribute: T/C

smiles-repr | experimental-target | T/C
Clc1nnc(-c2ccccc2)s1 | P388 leukemia ip, CD2F1 mice, survival T/C | 100 % of control
Clc1nn2ccnc2c2cccnc12 | P388 leukemia ip, CD2F1 mice, survival T/C | 103 % of control
CC(C)(C)C#CP(C#CC(C)(C)C)C#CC(C)(C)C | P388 leukemia ip, CD2F1 mice, survival T/C | 106 % of control
CCOC(=O)c1cc(=O)oc(=O)[nH]1 | P388 leukemia ip, CD2F1 mice, survival T/C | 114 % of control
O=C1N2CCSC2=NC1(c1ccccc1)c1ccccc1 | P388 leukemia ip, CD2F1 mice, survival T/C | 100 % of control

---

- System: P388 leukemia ip, CD2F1 mice, survival T/C
- assay-details: NCI In Vivo Anticancer Drug Screen. Data for tumor model P388 Leukemia (intraperitoneal) in CD2F1 (CDF1) mice
- conditions: endpoint: median survival time; dose: 120.0 mg/kg/injection; schedule: Q01DX005 (ip); vehicle: saline with Tween-80; higher = longer survival
Inconclusive results and toxic doses are left out.
Attribute: T/C

molecule | T/C
CO/C=C/c1cc2c(cc1Br)OCO2 | 111 % of control
CCOCCOCCOC(C)Oc1ccccc1OC (stereo unspecified) | 104 % of control
COC(=O)C1CCC(/C(C#N)=C2/CCC(C(=O)OC)[N-]2)=N1.COC(=O)C1CCC(/C(C#N)=C2/CCC(C(=O)OC)[N-]2)=N1.[Cu+2] (stereo unspecified) | 94 % of control
CCC(c1ccc(O)cc1)C(CC)c1ccc(OCCN)cc1 (stereo unspecified) | 100 % of control
Cc1cc(Cl)ccc1NC(=O)Oc1ccc(C#N)cc1 | 90 % of control
COc1ccc(C(C)c2cc3c(cc2OC(C)O)OCO3)cc1 (stereo unspecified) | 94 % of control

---

- Test system: P388 leukemia ip, CD2F1 mice, survival T/C
- assay-details: NCI In Vivo Anticancer Drug Screen. Data for tumor model P388 Leukemia (intraperitoneal) in CD2F1 (CDF1) mice
- conditions: endpoint: median survival time; dose: 200.0 mg/kg/injection; schedule: Q04DX002 (ip); vehicle: Klucel (hydroxypropylcellulose) (HPC); higher = longer survival
Toxic doses and inconclusive results are not listed.
Attribute: T/C

compound | T/C
CCN=c1c([N+](=O)[O-])c(NC(=O)c2ccccc2)sn1CC | 99 % of control
CCn1c(=O)c2[nH]c(Cl)nc2n(CCCOC)c1=O | 95 % of control
COc1cc(/C=C/c2ccc(N(C)C)cc2)oc(=O)c1 | 98 % of control
O=Cc1cc(/C=N/Nc2ccccc2C(=O)O)nc2[nH]c(=O)ccc12 | 102 % of control
O=C1C=C/C(=C\c2ccc(Cl)cc2)O1 | 107 % of control
COc1ccc(CC(CO)NC(=O)c2ccccc2)cc1 (stereo not given) | 108 % of control
CC(=O)Nc1ccc(S(=O)(=O)Nc2ccc3[nH]c(=O)oc3c2)cc1 | 97 % of control
O=C1SC/C(=N\N=c2/scc(-c3ccccc3)n2-c2ccccc2)N1Cc1ccccc1 | 91 % of control
C=CCNC(=S)N\N=C/C(/C=C/c1ccccc1)=N\NC(=S)NCC=C | 91 % of control
Cc1cc(C(=O)NC(C)c2ccc(S(=O)(=O)NC(=O)NC3CCCCC3)cc2)no1 (stereo not given) | 97 % of control

---

- Tested on: P388 leukemia ip, CD2F1 mice, survival T/C
- assay-details: NCI In Vivo Anticancer Drug Screen. Data for tumor model P388 Leukemia (intraperitoneal) in CD2F1 (CDF1) mice
- conditions: endpoint: median survival time; dose: 200.0 mg/kg/injection; schedule: Q04DX003 (ip); vehicle: Klucel (hydroxypropylcellulose) (HPC); higher = longer survival
Toxic doses and inconclusive results are not listed.

compound | T/C
CCOC(=O)c1cc(=O)oc(=O)[nH]1 | 87 % of control
Clc1cc2c(c3ncccc13)OCN(Cc1ccccc1)C2 | 92 % of control
CC(OS(C)(=O)=O)C(C)OS(C)(=O)=O (stereo unspecified) | 116 % of control
O=C1CC(c2ccccc2)=NO1 | 99 % of control
COC(=O)C1c2c(C)cc3n2C(C=CC3)C1C(=O)OC (stereo unspecified) | 93 % of control
O=C1OCCOCCOCCOCCOC(=O)c2cccc1n2 | 104 % of control
Cc1ccc(C(=O)NNC(O)C(F)(F)F)cc1 (stereo unspecified) | 102 % of control
CCOC(=O)Cc1ccc(-c2csc(Nc3ccc(Cl)cc3)n2)cc1 | 104 % of control
Nc1nnc(-c2ccc(Cl)c(Cl)c2)o1 | 105 % of control
Nc1cccc(SC2CC(=O)N(c3ccc4c(c3)OCO4)C2=O)c1 (stereo unspecified) | 101 % of control
CC(NS(=O)(=O)c1ccccc1)c1ccccc1 (stereo unspecified) | 106 % of control
CCn1c2ccccc2c2cc(N=Nc3cc4cc5ccccc5cc4cc3N)ccc21 | 93 % of control
COc1ccc(C2=NN(c3ccccc3)C(=O)/C2=C(/SC)N2CC2)cc1 | 91 % of control
C=CCn1nnc(N)n1 | 109 % of control
O=C(O)COc1ccc(I)cc1I | 91 % of control
CCOP(O)(=S)OCC.[Ce] | 100 % of control

---

- Test system: P388 leukemia ip, CD2F1 mice, survival T/C
- assay-details: NCI In Vivo Anticancer Drug Screen. Data for tumor model P388 Leukemia (intraperitoneal) in CD2F1 (CDF1) mice
- conditions: endpoint: median survival time; dose: 200.0 mg/kg/injection; schedule: Q01DX005 (ip); vehicle: Klucel (hydroxypropylcellulose) (HPC); higher = longer survival
Inconclusive results and toxic doses are left out.
Attribute: T/C
measurement-type: T/C

compound | observed-result
COC(=O)CCSC(=O)NC(C)C | 100 % of control
COc1ccc2ncc(COC(C)=O)c(COC(C)=O)c2c1 | 102 % of control
Nc1cc(Cl)cc2c1-c1ccc(Cl)cc1C2 | 94 % of control
O=C1c2ccccc2C(=O)N1/N=[N+](\[O-])c1ccccc1 | 110 % of control
O=C1C=C(O)CC(c2ccccc2)N1 (stereo unspecified) | 108 % of control
CNc1cccnc1C1OCCO1 | 100 % of control
COc1cccc(CCN2C(=O)CCC3=C2CCC3=O)c1 | 98 % of control
CC1(C)CC(C)(O)N(CCc2ccccc2)C(=S)N1 (stereo unspecified) | 98 % of control
COc1cc(CCN=Cc2cccc(OC)c2O)c([N+](=O)[O-])cc1OC | 93 % of control
Cc1cc(=O)[nH]c2cc(O)c(C(=O)O)cc12 | 88 % of control
CCOC(=O)C1CC1C1=C(C)c2cc3[n-]c(cc4nc(cc5[n-]c(cc1n2)c(C)c5CCC(=O)OC)C(CCC(=O)OC)=C4C)c(C)c3C1CC1C(=O)OCC.[Cl-].[Fe+3] (stereo unspecified) | 100 % of control

---

- System: P388 leukemia ip, CD2F1 mice, survival T/C
- assay-details: NCI In Vivo Anticancer Drug Screen. Data for tumor model P388 Leukemia (intraperitoneal) in CD2F1 (CDF1) mice
- conditions: endpoint: median survival time; dose: 200.0 mg/kg/injection; schedule: Q01DX005 (ip); vehicle: saline with Tween-80; higher = longer survival
- Procedure: The antitumor activity of compounds was measured in mice bearing transplantable tumors. Survival or tumor size were measured and the results are expressed as the measurement made in the treated group (T) divided by the measurement made in the vehicle treated control group (C). The tumor model used in this assay is P388 Leukemia (intraperitoneal) in CD2F1 (CDF1) mice
Toxic doses and inconclusive results are not listed.
measurement-type: T/C

compound | observed-result
CC(C)(C)c1ccc(NC(=O)c2ccccc2N)cc1 | 92 % of control
COc1ccc2c(c1OC)C(C(Cl)(Cl)Cl)N1CCc3cc4c(cc3C1=C2C=O)OCO4 (stereo not drawn) | 90 % of control
S=C1N(c2ccc(Br)cc2)C2=Nc3ccccc3SC(=C2N=Nc2ccccc2)N1c1ccc(Cl)cc1 | 93 % of control
CCN(CC)C(=O)c1c(OC)cc(C)cc1C(O)c1cc(OC)cc(OC)c1 (stereo not drawn) | 96 % of control
CC12CC3(Nc4ccccc4C3(C)O)OC1(C)c1ccccc1N2 (stereo not drawn) | 92 % of control
Cc1cc2c3c(cccc3c1)C(=O)c1ccccc1-2 | 93 % of control
O=C1CC2(CCc3ccccc32)C(=O)N1CCN1CCOCC1 (stereo not drawn) | 105 % of control
Nc1c(S(=O)(=O)O)cc(Br)c2c1C(=O)c1ccccc1C2=O | 93 % of control
C/C(=N\Nc1cccc2ccccc12)c1ccccn1 | 98 % of control
O=P1(c2ccccc2)Cc2ccccc2N1Cc1ccccc1 (stereo not drawn) | 104 % of control
COc1ccc2nc(CC(=N)c3ccc(N(C)C)cc3)ccc2c1 | 92 % of control
CC(C)CNc1ncnc2n[nH]nc12 | 100 % of control
Cc1ccccc1NP1(=O)OCCCN1Cc1ccc(Cl)c(Cl)c1 (stereo not drawn) | 93 % of control
